System: NCI-H23
Assay: NCI tumour cell line growth inhibition, 48 h
Calls of active or inactive are those of the source. No stated cut-off is given here; in the data, active = GI50 up to about 1.1 µM and inactive = higher.
Possible outcomes: 1 (yes) (active), 0 (no) (inactive)

# compound, category
records = [
    ("Cc1ccc(S(=O)(=O)SC(C)(C)C)cc1", "0 (no)"),
    ("Cc1ccc2[nH]c(=N/c3ccccc3C)/c(=N\\c3ccccc3C)[nH]c2c1", "0 (no)"),
    ("Cc1cc2c([nH]c3ccccc32)c2c1OC(C)(C)C1C3CC(C)(C)Oc4c(C)cc5c6ccccc6n(c5c43)C21 (configuration not stated)", "0 (no)"),
    ("O=C(c1ccccc1)c1c(-c2ccccc2)sc2nc3ccccc3nc12", "0 (no)"),
    ("C=C(C)[C@@]1(O[Si](C)(C)C)CCCC[C@@H]1CC(Sc1ccccc1)Sc1ccccc1", "0 (no)"),
    ("COc1cc(C2c3cc4c(cc3[C@@H](OCCN)[C@H]3COC(=O)C23)OCO4)cc(OC)c1O (some centres not stated)", "1 (yes)"),
    ("COc1cc(Nc2nc3ccccc3nc2C(C)C)cc(OC)c1OC", "0 (no)"),
    ("COC(=O)[C@H]1[C@H]2C[C@@H]3c4[nH]c5cc(OC)ccc5c4CCN3C[C@H]2C[C@@H](OC(=O)c2cc(OC)c(OC)c(OC)c2)[C@@H]1OC [RESERPINE]", "0 (no)"),
    ("CC(=O)O[C@H]1C(=O)[C@@]2(C)[C@H]([C@H](OC(=O)c3ccc(F)cc3)[C@]3(O)C[C@H](OC(=O)[C@H](O)[C@@H](NC(=O)c4ccccc4)c4ccccc4)C(C)=C1C3(C)C)[C@]1(OC(C)=O)CO[C@@H]1C[C@@H]2O", "1 (yes)"),
    ("COc1cc(/C=C2\\N=C(c3ccccc3)N(c3cc4cc(Sc5ccccc5)ccc4[nH]3)C2=O)cc(OC)c1OC", "0 (no)"),
    ("CC(C)c1c(O[Si](C(C)C)(C(C)C)C(C)C)c2c3c(ccc4c3c1OC4(C)C)C(C)CC2 (configuration not stated)", "0 (no)"),
    ("Oc1ccc(-c2c3ccccc3c(-c3ccc(OCCBr)cc3)c3ccccc23)cc1", "0 (no)"),
]

---

Measured GI50, listed per entry for reference.
Test system: A549
Test: NCI tumour cell line growth inhibition, 48 h
Active and inactive are the calls of the source. No stated cut-off is given here; in the data, active = GI50 up to about 1.1 µM and inactive = higher.

# molecule, GI50
rows = [
    ("Cc1cc(=O)cc2sc3cc(Cl)ccc3nc1-2", "4.49 µM (inactive)"),
    ("CN1CN(c2ccccc2)C2(CCNCC2)C1=O", "> 100 µM (inactive)"),
    ("COC1(CC[C@@H](C)COC2OC(CO)C(O)C(O)C2O)O[C@H]2C[C@H]3[C@@H]4CC=C5C[C@@H](OC6OC(CO)C(O)C(OC7OC(CO)C(O)C(O)C7O)C6OC6OC(C)C(O)C(O)C6O)CC[C@]5(C)[C@H]4CC[C@]3(C)[C@H]2[C@@H]1C (stereo partly drawn)", "2.68 µM (inactive)"),
]

---

Measured GI50 accompanies every entry in the list below.
Tested on: HCT-116
Experiment: NCI tumour cell line growth inhibition, 48 h
Calls of active or inactive are those of the source. No stated cut-off is given here; in the data, active = GI50 up to about 1.1 µM and inactive = higher.
property: GI50

# compound, measured-result
data = [
    ("CCc1cccc(C)c1NC(=O)CC1C(=O)Nc2ccccc2[S+]1[O-] (stereo not drawn)", "35.8 µM (inactive)"),
    ("O=C(N1CCN(c2ccccc2)CC1)N(C(=O)C1(c2ccc(Cl)cc2)CCCC1)S(=O)(=O)c1ccccc1", "22.5 µM (inactive)"),
    ("COc1cc(/C=C2\\CC/C(=C\\c3cc(OC)c(O)c(OC)c3)C2=O)cc(OC)c1O", "1.83 µM (inactive)"),
    ("COC(=O)C(CCCN1C(=O)c2ccccc2C1=O)C(=O)OC", "> 100 µM (inactive)"),
    ("CC(=O)Oc1ccc(-c2cc3ccccc3oc2=O)cc1OC(C)=O", "34.7 µM (inactive)"),
    ("O=c1cc(/N=N\\c2ccc(Cl)cc2)[nH]c(=O)[nH]1", "1.94 µM (inactive)"),
    ("COc1cc(Nc2nc3ccccc3nc2C(C)C)cc(OC)c1OC", "> 100 µM (inactive)"),
    ("CC(C)=CCC/C(C)=C/C=C/C(C)=C/C1C[C@@]2(C(O)O1)[C@H](CCCO)/C(=C(/C)C=O)CC[C@]2(C)O (stereo partly drawn)", "20.2 µM (inactive)"),
    ("CCCCOC(=O)NC(=O)c1cn(C2CCCCC2)c(=O)[nH]c1=O", "21.5 µM (inactive)"),
    ("Cn1cnc2c(sc3nc4ccccc4n32)c1=N", "> 100 µM (inactive)"),
    ("CN(C)CCCNc1ccnc2c([N+](=O)[O-])cccc12", "15.3 µM (inactive)"),
    ("CSc1ncnc2c1ncn2CCC(=O)OC(C)(C)C", "> 100 µM (inactive)"),
    ("c1ccc(C2=NN=C3C(c4ccccc4)=Nc4ccccc4N3C2)cc1", "10.8 µM (inactive)"),
]
